Reference source: patent US20260085069A1

Assay Info: Stability in aqueous media (FaSSIF, SGF, PBS)
Type: physicochemical
Cond: PBS pH 7.4, 37° C., 1 h
Description: 10 μL of a 10 mM stock solution of the Examples were dissolved in 490 μL DMSO to afford […] working solution SGF (pH 1.2): Dissolve 0.04 g NaCl and 0.064 g pepsin in 0.14 mL HCl and add sufficient water to 20 mL volume. The pH of the test solution was 1.20±0.05. 0.056% (w/v) lecithin, 0.161% (w/v) sodium taurocholate, 0.39% (w/v) monobasic potassium phosphate, 0.77% (w/v) potassium chloride, deionized H2O. […] Samples were analysed by Mass Spectrometry QTRAP 6500+.
Recorded Endpoint: PBS (pH 7.4) % remaining 1 h (%)
Numbers only; they are read as %.

Consider the worked cases shown below.
COC(=O)OCOC(=O)c1ccc2c(c1)nc(OCCOCCCCNCc1cc(F)c(OC(F)(F)F)c(F)c1)c1ccncc12    81.2
O=C(OCOC(=O)c1ccc2c(c1)nc(OCCOCCCCNCc1cc(F)c(OC(F)(F)F)c(F)c1)c1ccncc12)OC1CCOCC1    93.8
CN(C)CCOC(=O)c1ccc2c(c1)nc(OCCOCCCCNCc1cc(F)c(OC(F)(F)F)c(F)c1)c1ccncc12    71.8
CC(C)(C)OC(=O)OCOC(=O)c1ccc2c(c1)nc(OCCOCCCCNCc1cc(F)c(OC(F)(F)F)c(F)c1)c1ccncc12    100.3
CCC(=O)OCOC(=O)c1ccc2c(c1)nc(OCCOCCCCNCc1cc(F)c(OC(F)(F)F)c(F)c1)c1ccncc12    76.4
CC(C)OC(=O)c1ccc2c(c1)nc(OCCOCCCCNCc1cc(F)c(OC(F)(F)F)c(F)c1)c1ccncc12    74.5

Ask: Report PBS (pH 7.4) % remaining 1 h, nothing else, for this molecule: Cc1oc(=O)oc1COC(=O)c1ccc2c(c1)nc(OCCOCCCCNCc1cc(F)c(OC(F)(F)F)c(F)c1)c1ccncc12
Result: 78.9

* * *

Assay Info: Stability in aqueous media (FaSSIF, SGF, PBS)
Format: physicochemical
Cond: FaSSIF pH 6.5, 37° C., 24 h
Recorded Endpoint: FaSSIF (pH 6.5) % remaining 24 h (%)
Expressed in %, but write only the number.

Below, 5 compounds whose answers are already recorded.
CC(=O)OCOC(=O)c1ccc2c(c1)nc(OCCOCCCCNCc1cc(F)c(OC(F)(F)F)c(F)c1)c1ccncc12    104.4
COC(=O)OCOC(=O)c1ccc2c(c1)nc(OCCOCCCCNCc1cc(F)c(OC(F)(F)F)c(F)c1)c1ccncc12    105.9
CN(C)CCOC(=O)c1ccc2c(c1)nc(OCCOCCCCNCc1cc(F)c(OC(F)(F)F)c(F)c1)c1ccncc12    98.6
CC(C)(C)OC(=O)c1ccc2c(c1)nc(OCCOCCCCNCc1cc(F)c(OC(F)(F)F)c(F)c1)c1ccncc12    96.1
CC(C)(C)C(=O)OCOC(=O)c1ccc2c(c1)nc(OCCOCCCCNCc1cc(F)c(OC(F)(F)F)c(F)c1)c1ccncc12    109.4

Ask: Write down FaSSIF (pH 6.5) % remaining 24 h measured for item CCOC(=O)c1ccc2c(c1)nc(OCCOCCCCNCc1cc(F)c(OC(F)(F)F)c(F)c1)c1ccncc12
Result: 100.4

Ask: Supply reported FaSSIF (pH 6.5) % remaining 24 h belonging to this compound: CC(C)OC(=O)OCOC(=O)c1ccc2c(c1)nc(OCCOCCCCNCc1cc(F)c(OC(F)(F)F)c(F)c1)c1ccncc12
Result: 102.8

* * *

Assay type: in vitro ADME
Cond: rat plasma, 37° C., 10 min
% Example remaining 10 min values, listed per item
Enter your answer as a number in %; do not include the unit.

Use the examples below as a reference point.
CN(C)CCOC(=O)c1ccc2c(c1)nc(OCCOCCCCNCc1cc(F)c(OC(F)(F)F)c(F)c1)c1ccncc12 [Example 3]    0.1
CC(C)(C)C(=O)OCOC(=O)c1ccc2c(c1)nc(OCCOCCCCNCc1cc(F)c(OC(F)(F)F)c(F)c1)c1ccncc12 [Example 6]    0.3
Cc1oc(=O)oc1COC(=O)c1ccc2c(c1)nc(OCCOCCCCNCc1cc(F)c(OC(F)(F)F)c(F)c1)c1ccncc12 [Example 7]    0.1
CC(=O)OCOC(=O)c1ccc2c(c1)nc(OCCOCCCCNCc1cc(F)c(OC(F)(F)F)c(F)c1)c1ccncc12 [Example 10]    0.1

Ask: Look up % Example remaining 10 min of CCOC(=O)OCOC(=O)c1ccc2c(c1)nc(OCCOCCCCNCc1cc(F)c(OC(F)(F)F)c(F)c1)c1ccncc12 [Example 13] and report it.
Result: 0.1

Ask: Identify the reported % Example remaining 10 min for the following entry. CCOC(=O)c1ccc2c(c1)nc(OCCOCCCCNCc1cc(F)c(OC(F)(F)F)c(F)c1)c1ccncc12 [Example 8]
Result: 0.2

Ask: Let me know recorded % Example remaining 10 min for O=C(OCOC(=O)c1ccc2c(c1)nc(OCCOCCCCNCc1cc(F)c(OC(F)(F)F)c(F)c1)c1ccncc12)OC1CCOCC1 [Example 16] , thanks.
Result: 0.1

* * *

Assay Info: Comparative solubility data for Reference Example 1 (thermodynamic and kinetic)
Assay type: physicochemical
Cond: thermodynamic from solid; thermodynamic, FaSSIF, initial pH 6.5
Recorded Endpoint: solubility (µg/mL)
Your answer should be a plain number; it is taken to be in µg/mL.

Ask: // Input: O=C(O)c1ccc2c(c1)nc(OCCOCCCCNCc1cc(F)c(OC(F)(F)F)c(F)c1)c1ccncc12 [Reference Example 1] . Output its solubility only.
Result: 1.6

* * *

Assay Info: Stability in aqueous media (FaSSIF, SGF, PBS)
Type: physicochemical
Cond: FaSSIF pH 6.5, 37° C., 6 h
Recorded Endpoint: FaSSIF (pH 6.5) % remaining 6 h (%)
# value in %; strip the unit string

These recorded examples may help you get a feel for the data.
CC(=O)OCOC(=O)c1ccc2c(c1)nc(OCCOCCCCNCc1cc(F)c(OC(F)(F)F)c(F)c1)c1ccncc12    97.1
COC(=O)OCOC(=O)c1ccc2c(c1)nc(OCCOCCCCNCc1cc(F)c(OC(F)(F)F)c(F)c1)c1ccncc12    97.5
O=C(OCOC(=O)c1ccc2c(c1)nc(OCCOCCCCNCc1cc(F)c(OC(F)(F)F)c(F)c1)c1ccncc12)OC1CCOCC1    104.4
CC(C)C(=O)OCOC(=O)c1ccc2c(c1)nc(OCCOCCCCNCc1cc(F)c(OC(F)(F)F)c(F)c1)c1ccncc12    97.5

Ask: Assign FaSSIF (pH 6.5) % remaining 6 h to the following record: COC(=O)c1ccc2c(c1)nc(OCCOCCCCNCc1cc(F)c(OC(F)(F)F)c(F)c1)c1ccncc12
Result: 86.6

Ask: Look up FaSSIF (pH 6.5) % remaining 6 h of CC(C)(C)OC(=O)c1ccc2c(c1)nc(OCCOCCCCNCc1cc(F)c(OC(F)(F)F)c(F)c1)c1ccncc12 and report it.
Result: 98.3

Ask: Complete the entry with FaSSIF (pH 6.5) % remaining 6 h for Cc1oc(=O)oc1COC(=O)c1ccc2c(c1)nc(OCCOCCCCNCc1cc(F)c(OC(F)(F)F)c(F)c1)c1ccncc12
Result: 93.5

* * *

Assay Info: Stability in aqueous media (FaSSIF, SGF, PBS)
Type: physicochemical
Cond: FaSSIF pH 6.5, 37° C., 24 h
Recorded Endpoint: FaSSIF (pH 6.5) % remaining 24 h (%)
Respond with the bare value in %.

The examples below pair each entry with its known result.
CC(C)C(=O)OCOC(=O)c1ccc2c(c1)nc(OCCOCCCCNCc1cc(F)c(OC(F)(F)F)c(F)c1)c1ccncc12    98.8
O=C(OCOC(=O)c1ccc2c(c1)nc(OCCOCCCCNCc1cc(F)c(OC(F)(F)F)c(F)c1)c1ccncc12)OC1CCOCC1    95.7
CC(C)OC(=O)c1ccc2c(c1)nc(OCCOCCCCNCc1cc(F)c(OC(F)(F)F)c(F)c1)c1ccncc12    87.2

Ask: Query FaSSIF (pH 6.5) % remaining 24 h for COC(=O)c1ccc2c(c1)nc(OCCOCCCCNCc1cc(F)c(OC(F)(F)F)c(F)c1)c1ccncc12
Result: 93.3

Ask: Look up and state reported FaSSIF (pH 6.5) % remaining 24 h for Cc1oc(=O)oc1COC(=O)c1ccc2c(c1)nc(OCCOCCCCNCc1cc(F)c(OC(F)(F)F)c(F)c1)c1ccncc12
Result: 89.1

Ask: For the compound CCOC(=O)OCOC(=O)c1ccc2c(c1)nc(OCCOCCCCNCc1cc(F)c(OC(F)(F)F)c(F)c1)c1ccncc12 , give its reported FaSSIF (pH 6.5) % remaining 24 h.
Result: 96.8

Ask: Using the record for CC(C)(C)OC(=O)OCOC(=O)c1ccc2c(c1)nc(OCCOCCCCNCc1cc(F)c(OC(F)(F)F)c(F)c1)c1ccncc12 , state its measured FaSSIF (pH 6.5) % remaining 24 h.
Result: 98.6

Ask: For the compound CCC(=O)OCOC(=O)c1ccc2c(c1)nc(OCCOCCCCNCc1cc(F)c(OC(F)(F)F)c(F)c1)c1ccncc12 , give its reported FaSSIF (pH 6.5) % remaining 24 h.
Result: 99.8
